Measured values drawn from PubChem BioAssay (NCI) for this set.

# Test system: NCI/ADR-RES ovarian
# assay.details: NCI tumour cell line growth inhibition, 48 h
property.name: TGI (µM)

>>> print(df.to_string())
                                   molecule  unit  lt_gt_eq  assay_value
0  O[C@@]12Cc3c([nH]c4ccccc34)[C@@H]3Oc4cccc5c4[C@@]31CCN(CC1CC1)[C@@H]2C5    µM         =         51.2
1           COc1c(=O)cc2cc[nH]c3ccn(C)c1c23    µM         >          100
2      Oc1[nH]c2ccccc2c1N=NC(=S)Nc1ccccc1Cl    µM         =         3.48
3  CCOC(=O)c1c(C)n(-c2ccc(Cl)cc2)c2c1cc(O)c1[nH]c3c(c12)CCCC3    µM         >          100
4        CCOC(=O)C1(F)S(=O)(=O)OCCOS1(=O)=O    µM         >          100
5  CC(=O)NCc1cccc(C#Cc2cncnc2Nc2ccc(OCc3cccc(F)c3)c(Cl)c2)c1    µM         >           25
6  Cc1cccc2c3c(sc12)C(c1ccc(Cl)cc1)C(C#N)=C(N)O3 (configuration not stated)    µM         =         2.46

----------
# Test system: IGROV1 ovarian
# assay.details: NCI tumour cell line growth inhibition, 48 h
property.name: TGI

>>> df
                                    molecule  assay_value
 0   O=C(CCC1C(=O)NC(=S)NC1=O)c1ccc2ccccc2c1     > 100 µM
 1  O=C(/C=C/c1cccc(O)c1)c1cccc(-n2cc(-c3ccccc3)[nH]c2=O)c1      13.2 µM
 2  O=C1c2sccc2-c2cccc3cccc1c23 (tested in a mixture with another compound)      50.2 µM
 3  CCN1CCC(O)(/C=C/c2ccccc2C)C(C(=O)/C=C/c2ccccc2C)C1 (centres undefined)      14.5 µM
 4  C=CNC(=O)NC(=O)CSc1nnc(-c2ccccc2NC(=O)C(F)(F)F)c(=O)[nH]1     > 100 µM
 5  CC12C=CC(=O)C=C1CCC1C3CCC(O)(C(=O)CO)C3(C)CC(O)C12F (centres undefined)     > 100 µM
 6  O=c1[nH]c(=S)nc2nc3c4ccc[nH]c4c4ccccc4c3nc12     > 100 µM
 7  CCC1(O)C(=O)OCc2c1cc1n(c2=O)Cc2cc3c(NC(=O)CN)cccc3nc2-1 (centres undefined)      73.4 µM
 8  OCCNC1c2cc(Cl)ccc2-c2c(Cl)cc(Cl)cc21 (centres undefined)        47 µM
 9  CCCCCCCCCCCCC(Br)C(=O)NCC(N)=O (centres undefined)      29.8 µM
10                                 O=CNCNCCO     > 100 µM
11     COC(=O)c1cncc(/C=C/c2c(C)cc(O)cc2C)c1      > 25 µM
12                      c1ccc(CCc2cccnc2)nc1     > 100 µM
13              Nc1nc(Nc2ccccc2)c2[nH]cnc2n1     > 100 µM
14  Oc1ccc2cc(Br)ccc2c1-c1c(O)ccc2ccc(Br)cc12      20.7 µM
15  CC(=O)C1=CN=C2C(=O)N(c3ccccc3)N(C)C12C (centres undefined)     > 100 µM
16              [N-]=[N+]=NI1OC(=O)c2ccccc21     > 100 µM
17            c1cc2nnc1SCCCSc1ccc(nn1)SCCCS2    > 81.3 µM
18  COc1ccc(-c2nc(/C=C3\SC(=NCc4ccccc4)NC3=O)c3ccccn23)cc1      4.22 µM
